- Tested on: Escherichia coli
- PROCEDURE SUMMARY: Antimicrobial activity against Escherichia coli ATCC 10536 assessed as growth inhibition after 24 hr by broth dilution assay method
- Format: functional
- DETAILS: ATCC 10536, 24 h
Parameter: MIC. Scope: all listed entries.
Kindly provide the numeric value in µg/mL only, without the unit symbol.

Use these answered entries as a reference point.
C/C(=N\NC(=O)CSc1nnc(-c2nc(C(C)C)cs2)n1-c1ccccc1)c1ccc(C)cc1; 125
C/C(=N\NC(=O)CSc1nnc(-c2nc(C(C)C)cs2)n1-c1ccccc1)c1ccc(O)cc1; 16
COc1ccc(/C(C)=N/NC(=O)CSc2nnc(-c3nc(C(C)C)cs3)n2-c2ccccc2)cc1; 125
C/C(=N\NC(=O)CSc1nnc(-c2nc(C(C)C)cs2)n1-c1ccccc1)c1ccc(Cl)cc1; 16
COc1ccc(/C=N/NC(=O)CSc2nnc(-c3nc(C(C)C)cs3)n2-c2ccccc2)cc1OC; 16

Incoming: Value lookup for MIC; key = CC(C)c1csc(-c2nnc(SCC(=O)N/N=C/c3ccc(Cl)cc3)n2-c2ccccc2)n1
Outgoing: 31.2

Incoming: What do you have for CC(C)c1csc(-c2nnc(SCc3nnc(-c4ccc(Cl)cc4)o3)n2-c2ccccc2)n1 ?
Outgoing: 62.5

Incoming: What do you have for COc1cc(/C=N/NC(=O)CSc2nnc(-c3nc(C(C)C)cs3)n2-c2ccccc2)ccc1O ?
Outgoing: 8

Incoming: What do you have for CC(C)c1csc(-c2nnc(SCC(=O)NN)n2-c2ccccc2)n1 ?
Outgoing: 8

Incoming: What do you have for CC(C)c1csc(-c2nnc(SCc3nnc(-c4ccc([N+](=O)[O-])cc4)o3)n2-c2ccccc2)n1 ?
Outgoing: 62.5
